Kd reference
testSystem: T1, Rb^P T620M (human, UniProt P06400 380-788, T620M)
T1 construct: also called variant 40
T1 sequence (looked up): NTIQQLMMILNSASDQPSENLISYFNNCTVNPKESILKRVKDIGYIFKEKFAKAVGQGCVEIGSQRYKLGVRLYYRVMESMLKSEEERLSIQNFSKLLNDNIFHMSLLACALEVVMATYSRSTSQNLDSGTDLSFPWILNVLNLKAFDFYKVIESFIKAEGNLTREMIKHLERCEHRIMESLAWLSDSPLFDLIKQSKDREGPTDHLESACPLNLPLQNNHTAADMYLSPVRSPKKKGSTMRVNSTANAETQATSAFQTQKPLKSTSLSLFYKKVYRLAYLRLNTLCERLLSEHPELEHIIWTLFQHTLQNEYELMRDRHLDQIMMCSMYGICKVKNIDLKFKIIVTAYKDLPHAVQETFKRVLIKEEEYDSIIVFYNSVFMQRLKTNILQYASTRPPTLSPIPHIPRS
testSummary: fluorescence polarisation; 25 °C; unlabeled Rb^P titrated against 1.5 nM TMR-E2F1^TD or 7.5 nM TMR-E7^LxCxE; 25 mM Tris pH 8.0, 200 mM NaCl, 1 mM DTT, 0.1% Tween-20; 2 min incubation; quadratic fit; apparent Kd for the variants, Kd for WT
measurementContext: both partners purified
No end group written: not given here. TMR = tetramethyl rhodamine dye
readoutName: Kd

- {TMR}-GEGIRDLFDCDFGDLTPLD (also called E2F^TD; source: synthetic peptide, bought: GenScript) [TMR-E2F1^TD, peptide of the E2F1 transactivation domain]: 24 nM
- DLYCYEQLN (also: TMR label, position not given here, source: synthetic peptide, bought: GenScript) [TMR-E7^LxCxE, LxCxE peptide of the E7 oncoprotein from HPV]: 6 nM
